tested on: Liver; assay: Metabolic stability in dog liver microsomes assessed as compound remaining in presence of UDPGA by RP-HPLC; type: ADME, Canis lupus familiaris, Microsome
assay-readout: Stability

>  <smiles-representation>
COc1cccc(C[C@H](NC(=O)c2cccc(N)c2Cl)[C@H](O)C(=O)N2CCC(C)(C)[C@H]2C(=O)NCc2c(C)cccc2C)c1

>  <target-or-test-system>
Liver

>  <observed-measurement>
> 95%

$$$$
>  <smiles-representation>
COC(=O)N[C@H](C(=O)N[C@@H](Cc1ccccc1)[C@@H](O)CN(Cc1ccc(-c2ccccn2)cc1)NC(=O)[C@@H](NC(=O)OC)C(C)(C)C)C(C)(C)C

>  <target-or-test-system>
Liver

>  <observed-measurement>
> 95%

$$$$
>  <smiles-representation>
Cc1ccccc1CNC(=O)[C@H]1N(C(=O)[C@@H](O)[C@H](Cc2ccccc2)NC(=O)c2cccc(O)c2C)CSC1(C)C

>  <target-or-test-system>
Liver

>  <observed-measurement>
91%

$$$$
>  <smiles-representation>
COc1cccc(C[C@H](NC(=O)c2cccc(N)c2Cl)[C@H](O)C(=O)N2CSC(C)(C)[C@H]2C(=O)NCc2c(C)cccc2C)c1

>  <target-or-test-system>
Liver

>  <observed-measurement>
> 95%

$$$$
